Task for the reader: assign each of the following substances its reported APOE RNA (% control) Spinal Cord.
System: human APOE RNA
Assay: Activity in APOE C57BL/6NTac-Apoeem7250 knock-in mice, single ICV bolus, 16 weeks (Example 12)
Type: in vivo
Details: spinal cord; single ICV bolus 300 μg; 16 weeks post treatment; normalized to mouse Ppia
Description: Modified oligonucleotides described above were tested in the APOE C57BL/6NTac-Apoeem7250 knock-in mouse model described above. APOE C57BL/6NTac-Apoeem7250 knock-in mice were divided into groups of 3-4 mice each. […] Sixteen weeks post treatment, mice were sacrificed and RNA was extracted from cortical brain tissue and spinal cord for quantitative real-time RT-PCR analysis of RNA expression of APOE using primer probe set RTS3073 (described herein above). […]
Strand notation (5' to 3'): a small letter for the sugar, then the base; units joined by * are phosphorothioate-linked, units joined directly phosphodiester-linked; [ ] holds rarer units or linkages, { } end groups; capitals alone tell only the bases. [ms] = mesyl phosphoramidate linkage; e = 2'-O-(2-methoxyethyl) (MOE); k = constrained ethyl (cEt); [5mC] = 5-methylcytosine; d = 2'-deoxy (DNA)
Unit % control implied. Number only.

// query Identify measured APOE RNA (% control) Spinal Cord obtained with human APOE RNA for 1693075: 5-10-5 MOE gapmer ACTTGGTGAATCTTTATTAA, linkages ssssssszzzzzsssssss (eA*e[5mC]*eT*eT*eG*dG*dT*dG[ms]dA[ms]dA[ms]dT[ms]d[5mC][ms]dT*dT*dT*eA*eT*eT*eA*eA) [compound 1693075] .
// result 64

// query Identify measured APOE RNA (% control) Spinal Cord obtained with human APOE RNA for ^mCksTksTksGdzGdzTdzGdzAdzAdzTds^mCdsTdsTdsTdsAdsTdsTksAksAdzAk (antisense k[5mC]*kT*kT*dG[ms]dG[ms]dT[ms]dG[ms]dA[ms]dA[ms]dT*d[5mC]*dT*dT*dT*dA*dT*kT*kA*dA[ms]kA) [Compound No. 1785602] .
// result 20

// query Identify measured APOE RNA (% control) Spinal Cord obtained with human APOE RNA for 1693062: 5-10-5 MOE gapmer TTGGTGAATCTTTATTAAAC, linkages ssssozzzsssszzsssss (antisense eT*eT*eG*eG*eTdG[ms]dA[ms]dA[ms]dT*d[5mC]*dT*dT*dT[ms]dA[ms]dT*eT*eA*eA*eA*e[5mC]) [compound 1693062] .
// result 110

// query Identify measured APOE RNA (% control) Spinal Cord obtained with human APOE RNA for 1693100: 6-10-4 MOE gapmer CTTGGTGAATCTTTATTAAA, linkages sssssszzzssssszsoss (e[5mC]*eT*eT*eG*eG*eT*dG[ms]dA[ms]dA[ms]dT*d[5mC]*dT*dT*dT*dA[ms]dT*eTeA*eA*eA) [compound 1693100] .
// result 51

// query Identify measured APOE RNA (% control) Spinal Cord obtained with human APOE RNA for 1757571 (eA*e[5mC]eTeT*eG*kG*dT*dG[ms]dA[ms]dA[ms]dT*d[5mC]*dT*dT*dT*dA[ms]eT*eT*eA*eA; antisense) [Compound 1757571] .
// result 26

// query Identify measured APOE RNA (% control) Spinal Cord obtained with human APOE RNA for 1778128: modified oligonucleotide complementary to human APOE RNA (eA*e[5mC]eTeTkGkG*dT*dG[ms]dA[ms]dA*dT*d[5mC]*dT*dT*dT*dA[ms]kTeT*eA*eA; antisense) [compound 1778128] .
// result 22

// query Identify measured APOE RNA (% control) Spinal Cord obtained with human APOE RNA for 1785616 (k[5mC]*dT[ms]dT[ms]kG*dG[ms]kT*dG[ms]dA[ms]dA[ms]dT*d[5mC]*dT*dT*dT*dA*dT[ms]kT*kA*dA[ms]kA; antisense) [Compound 1785616] .
// result 34

// query Identify measured APOE RNA (% control) Spinal Cord obtained with human APOE RNA for 1693041: 5-10-5 MOE gapmer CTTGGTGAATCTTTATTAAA, linkages ssossszzzssssssosss (antisense e[5mC]*eT*eTeG*eG*dT*dG[ms]dA[ms]dA[ms]dT*d[5mC]*dT*dT*dT*dA*eTeT*eA*eA*eA) [compound 1693041] .
// result 85

// query Identify measured APOE RNA (% control) Spinal Cord obtained with human APOE RNA for 1693072: 5-10-5 MOE gapmer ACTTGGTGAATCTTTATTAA, linkages ssssosszzzzzsssssss (eA*e[5mC]*eT*eT*eGdG*dT*dG[ms]dA[ms]dA[ms]dT[ms]d[5mC][ms]dT*dT*dT*eA*eT*eT*eA*eA) [compound 1693072] .
// result 61

// query Identify measured APOE RNA (% control) Spinal Cord obtained with human APOE RNA for 1778111: modified oligonucleotide complementary to human APOE RNA (eA*e[5mC]eTeTeG*kG*dT*dG[ms]dA[ms]dA*dT*d[5mC]*dT*dT*dT*dA[ms]eTeT*eA*eA; antisense) [compound 1778111] .
// result 27

// query Identify measured APOE RNA (% control) Spinal Cord obtained with human APOE RNA for 1757574 (eA*e[5mC]eTeT*eG*eG*dT*dG[ms]dA[ms]dA[ms]dT*d[5mC]*dT*dT*dT*dA[ms]kT*kT*eA*eA; antisense) [Compound 1757574] .
// result 22

// query Identify measured APOE RNA (% control) Spinal Cord obtained with human APOE RNA for 1693048: 5-10-5 MOE gapmer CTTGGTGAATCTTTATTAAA, linkages ssssszzzzssssszosss (antisense e[5mC]*eT*eT*eG*eG*dT[ms]dG[ms]dA[ms]dA[ms]dT*d[5mC]*dT*dT*dT*dA[ms]eTeT*eA*eA*eA) [compound 1693048] .
// result 71

// query Identify measured APOE RNA (% control) Spinal Cord obtained with human APOE RNA for 1693059: 5-10-5 MOE gapmer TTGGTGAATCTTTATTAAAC, linkages ssssszzzssssszsssss (antisense eT*eT*eG*eG*eT*dG[ms]dA[ms]dA[ms]dT*d[5mC]*dT*dT*dT*dA[ms]dT*eT*eA*eA*eA*e[5mC]) [compound 1693059] .
// result 98

// query Identify measured APOE RNA (% control) Spinal Cord obtained with human APOE RNA for 1693061: 5-10-5 MOE gapmer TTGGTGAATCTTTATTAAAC, linkages sssoszzzsssszzsssss (antisense eT*eT*eG*eGeT*dG[ms]dA[ms]dA[ms]dT*d[5mC]*dT*dT*dT[ms]dA[ms]dT*eT*eA*eA*eA*e[5mC]) [compound 1693061] .
// result 99

// query Identify measured APOE RNA (% control) Spinal Cord obtained with human APOE RNA for 1778129: modified oligonucleotide complementary to human APOE RNA (eA*e[5mC]eTeTeG*kG*dT*dG[ms]dA[ms]dA*dT*d[5mC]*dT*dT*dT*dA[ms]kT*kT*eA*eA; antisense) [compound 1778129] .
// result 14

// query Identify measured APOE RNA (% control) Spinal Cord obtained with human APOE RNA for 1693044: 5-10-5 MOE gapmer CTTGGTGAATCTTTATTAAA, linkages sssoszzzzssssssssss (antisense e[5mC]*eT*eT*eGeG*dT[ms]dG[ms]dA[ms]dA[ms]dT*d[5mC]*dT*dT*dT*dA*eT*eT*eA*eA*eA) [compound 1693044] .
// result 63

Just for reference, patent US20250353873A1 is where these values come from.
